Data credit: paper PMC6052345

# Subject Of Test: MsepCSP8 (Mythimna separata, UniProt A0A1V1WC03)
# Sequence (A0A1V1WC03 entry or part of it): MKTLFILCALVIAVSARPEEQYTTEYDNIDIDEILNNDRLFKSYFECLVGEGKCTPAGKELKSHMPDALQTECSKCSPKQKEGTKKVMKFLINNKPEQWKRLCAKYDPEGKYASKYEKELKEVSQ
# Measurement Notes: Fluorescence competitive binding assay with 1-NPN as fluorescent probe
# Run Parameters: pH 7.4; displacement of 1-NPN; read-out: IC50
# Protocol: The expressed protein was obtained in soluble form in the supernatant, and purification was accomplished using a Ni affinity chromatography column (GE Healthcare, Uppsala, Sweden). Bound protein was eluted by digestion with recombinant bovine enterokinase at 26°C for 15 h to remove the His-tag. Expression and purification were verified by 15% sodium dodecyl sulfate-polyacrylamide gel electrophoresis (SDS-PAGE), and protein concentration was measured as described by [Cao et al. (2017)]. […]

| Compound | Measurement Unit | IC50 |
| --- | --- | --- |
| CC1=CC[C@@H]2[C@@H]3[C@H]1[C@@]2(C)CCCC3(C)C [(+)-α-longipinene] | µM | 14.1 |
| C=C1CC[C@@H]2C[C@H]1C2(C)C [(R)-(+)-β-pinene] | µM | 13.9 |
| C=C(C)[C@H]1CC=C(C)CC1 [R-(+)-Limonene] | µM | 23.5 |
| CCCCCCCCCCCC=O | µM | 24.6 |
| CC1=CC(=O)[C@H]2C[C@@H]1C2(C)C [(S)-(-)-verbenone] | µM | 13.2 |
| C=CC(C)=CCC=C(C)C | µM | 16.7 |
| C/C1=C\CC/C(C)=C/CC(C)(C)/C=C/C1 | µM | 18.5 |
| CC1(C)CCC[C@@]2(C)[C@@H]3CC4C([C@@H]31)C42C (single isomer, unassigned; (+)) [(+)-Longicyclene] | µM | 40.1 |
| C=C(C)C1CCC2(C)OC2C1 (single isomer, unassigned; (-)) [(–)-Limonene oxide] | µM | 17.5 |
| CC1=CCC2C(C1)C2(C)C (single isomer, unassigned; (+)) [(+)-3-Carene] | µM | 13.4 |

###

# Subject Of Test: MsepCSP8 (Mythimna separata, UniProt A0A1V1WC03)
# Measurement Notes: Fluorescence competitive binding assay with 1-NPN as fluorescent probe
# Run Parameters: pH 7.4; calculated from IC50; read-out: Ki
Ki under 10 µM gets 1, anything at or over 10 µM gets -1.

| Compound | Label Class |
| --- | --- |
| CC1=CC(=O)[C@H]2C[C@@H]1C2(C)C [(S)-(-)-verbenone] | 1 |
| CCCCCCCCCCCC=O | -1 |
| C/C1=C\CC/C(C)=C/CC(C)(C)/C=C/C1 | -1 |
| CC1(C)CCC[C@@]2(C)[C@@H]3CC4C([C@@H]31)C42C (single isomer, unassigned; (+)) [(+)-Longicyclene] | -1 |
| C=C(C)C1CCC2(C)OC2C1 (single isomer, unassigned; (-)) [(–)-Limonene oxide] | -1 |
| CC1=CCC2C(C1)C2(C)C (single isomer, unassigned; (+)) [(+)-3-Carene] | 1 |
| C=CC(C)=CCC=C(C)C | -1 |
| C=C(C)[C@H]1CC=C(C)CC1 [R-(+)-Limonene] | -1 |

###

# Subject Of Test: MsepCSP8 (Mythimna separata)
# Measurement Notes: Fluorescence competitive binding assay with 1-NPN as fluorescent probe
# Run Parameters: IC50, pH 5.0; displacement of 1-NPN
Experimental Readout: IC50 (µM)

| Compound | Subject Of Test | Measurement |
| --- | --- | --- |
| CCCCCCCCCCCCCCCCCCCCCCCCC | MsepCSP8 (Mythimna separata) | 11.2 |
| CCCCCCCC | MsepCSP8 (Mythimna separata) | 15.9 |
| C=C1CC[C@H]2O[C@]2(C)CC[C@@H]2[C@@H]1CC2(C)C [(–)-Caryophyllene oxide] | MsepCSP8 (Mythimna separata) | 10.3 |
| CCCCCC(C)O (stereo not drawn) | MsepCSP8 (Mythimna separata) | 25.6 |
| CCCCCCCCCCCCCC | MsepCSP8 (Mythimna separata) | 23.8 |
| CCCCCC | MsepCSP8 (Mythimna separata) | 26.3 |
| CC12CCC(CC1)C(C)(C)O2 | MsepCSP8 (Mythimna separata) | 88.1 |
| C=CC(C)(O)CCC=C(C)CCC=C(C)C (mixture of isomers) | MsepCSP8 (Mythimna separata) | 15.4 |
| CCCCCCCCCCCCCCCC | MsepCSP8 (Mythimna separata) | 10.3 |
| Cc1ccc(C(C)C)cc1 | MsepCSP8 (Mythimna separata) | 7.72 |
| CCC/C=C/CO [Trans-2-hexen-1-ol] | MsepCSP8 (Mythimna separata) | 8.46 |
| CCCCCCCCCC(C)=O | MsepCSP8 (Mythimna separata) | 22.3 |

###

# Subject Of Test: UniProt A0A1V1WC03
# Measurement Notes: Fluorescence competitive binding assay with 1-NPN as fluorescent probe
# Run Parameters: pH 5.0; calculated from IC50; read-out: Ki
pKi: −log10 of the molar value.
# pKi per entry
Experimental Readout: pKi

| Compound | Measurement |
| --- | --- |
| CC1=CC[C@@H]2[C@@H]3[C@H]1[C@@]2(C)CCCC3(C)C [(+)-α-longipinene] | 4.97 |
| CC1=CC(=O)[C@H]2C[C@@H]1C2(C)C [(S)-(-)-verbenone] | 4.79 |
| CC1(C)CCC[C@@]2(C)[C@@H]3CC4C([C@@H]31)C42C (single isomer, unassigned; (+)) [(+)-Longicyclene] | 3.53 |
| CCCCCCCCCCCC=O | 4.56 |
| C=C(C)[C@H]1CC=C(C)CC1 [R-(+)-Limonene] | 4.85 |
| C=CC(C)=CCC=C(C)C | 4.93 |
| C/C1=C\CC/C(C)=C/CC(C)(C)/C=C/C1 | 4.76 |
| CC1=CCC2C(C1)C2(C)C (single isomer, unassigned; (+)) [(+)-3-Carene] | 4.88 |
| C=C1CC[C@@H]2C[C@H]1C2(C)C [(R)-(+)-β-pinene] | 4.71 |
| C=C(C)C1CCC2(C)OC2C1 (single isomer, unassigned; (-)) [(–)-Limonene oxide] | 4.46 |

###

# Ki per entry
# Subject Of Test: MsepCSP8 (Mythimna separata, UniProt A0A1V1WC03)
# Measurement Notes: Fluorescence competitive binding assay with 1-NPN as fluorescent probe
# Run Parameters: Ki, pH 7.4; calculated from IC50
Experimental Readout: Ki

| Molecule | Subject Of Test | Experimental Readout | Measurement |
| --- | --- | --- | --- |
| CCCCCC | MsepCSP8 (Mythimna separata, UniProt A0A1V1WC03) | Ki | 6.8 µM |
| CC1=CC[C@H](C(C)C)C=C1 | MsepCSP8 (Mythimna separata, UniProt A0A1V1WC03) | Ki | 14.7 µM |
| CCCCCC(C)O (stereo not shown) | MsepCSP8 (Mythimna separata, UniProt A0A1V1WC03) | Ki | 16.7 µM |
| CCCCCCCC=O | MsepCSP8 (Mythimna separata, UniProt A0A1V1WC03) | Ki | 6.93 µM |
| CCOC(C)=O [Ethyl acetate] | MsepCSP8 (Mythimna separata, UniProt A0A1V1WC03) | Ki | 47.2 µM |
| COC(=O)c1ccccc1 [Methyl benzoate] | MsepCSP8 (Mythimna separata, UniProt A0A1V1WC03) | Ki | 8.8 µM |
| CCC(O)CC | MsepCSP8 (Mythimna separata, UniProt A0A1V1WC03) | Ki | 11.3 µM |

###

# Subject Of Test: MsepCSP8 (Mythimna separata)
# Measurement Notes: Fluorescence competitive binding assay with 1-NPN as fluorescent probe
# Run Parameters: Ki, pH 5.0; calculated from IC50
pKi: −log10 of the molar value.
Experimental Readout: pKi

| Compound | Subject Of Test | Measurement |
| --- | --- | --- |
| CCCCCCCCC=O | MsepCSP8 (Mythimna separata) | 4.96 |
| C=CC(C)(O)CCC=C(C)CCC=C(C)C (mixture of isomers) | MsepCSP8 (Mythimna separata) | 4.94 |
| C=CC(=C)CCC=C(C)C | MsepCSP8 (Mythimna separata) | 4.89 |

###

# Subject Of Test: MsepCSP8 (Mythimna separata, UniProt A0A1V1WC03)
# Measurement Notes: Fluorescence competitive binding assay with 1-NPN as fluorescent probe
# Run Parameters: Ki, pH 7.4; calculated from IC50
pKi: −log10 of the molar value.
Tick Condition met if pKi is 5 or greater. Tick Condition not met if pKi is less than 5.

| Molecule | Subject Of Test | Label Class |
| --- | --- | --- |
| CCC/C=C/CO [Trans-2-hexen-1-ol] | MsepCSP8 (Mythimna separata, UniProt A0A1V1WC03) | Condition not met |
| CCCCCCCCCC(C)=O | MsepCSP8 (Mythimna separata, UniProt A0A1V1WC03) | Condition not met |
| CCCCCCCCCC=O | MsepCSP8 (Mythimna separata, UniProt A0A1V1WC03) | Condition not met |
| CCCCCCCCCCCC(C)=O | MsepCSP8 (Mythimna separata, UniProt A0A1V1WC03) | Condition met |
